I'd be grateful if you could share measured Minimum inhibitory concentrations, MDR S. aureus for these entries.
Tested on: MDR S. aureus
Assay: microbe, parasite or virus in culture
Conditions: CLSI broth microdilution; CAMHB with 50 mg/L Ca2+, 10 mg/L Mg2+; 5 × 10^5 CFU/ml; 18 h 37 °C; triplicate; strain KCCM 40510
Square brackets hold non-standard residues; d marks the D form. Peptide text beside a SMILES is read from it. Trp(5-OH) = N[C@@H](Cc1c[nH]c2ccc(O)cc12)C(=O)O

compound | targetSystem | reading
CC[C@@H](C)[C@@H](NC(=O)[C@@H](Cc1c[nH]c2ccccc12)NC(=O)[C@@H](CCC(=O)O)NC(=O)[C@@H](CC(C)C)NC(=O)[C@H](N)Cc1c[nH]c2ccccc12)C(=O)NCC(=O)N[C@H](CC(C)C)C(=O)N[C@H](CCCNC(=N)N)C(=O)N[C@H](CCCCN)C(=O)N[C@H](CCCCN)C(=O)N[C@H](CCCNC(=N)N)C(N)=O [WCopWE] (H-[dW][dL][dE][dW][dI]G[dL][dR][dK][dK][dR]-NH2) | MDR S. aureus | >20 µM
CC[C@H](C)[C@H](NC(=O)[C@H](Cc1c[nH]c2ccc(O)cc12)NC(=O)[C@H](CC(C)C)NC(=O)[C@H](CC(C)C)NC(=O)[C@@H](N)Cc1c[nH]c2ccc(O)cc12)C(=O)N[C@@H](C)C(=O)N[C@@H](CC(C)C)C(=O)N[C@@H](CCCNC(=N)N)C(=O)N[C@@H](CCCCN)C(=O)N[C@@H](CCCCN)C(N)=O [WhCopW] (H-[Trp(5-OH)]LL[Trp(5-OH)]IALRKK-NH2) | MDR S. aureus | 5 µM

Q: Look up MDR S. aureus data: Minimum inhibitory concentrations, MDR S. aureus of CC[C@@H](C)[C@@H](NC(=O)[C@@H](Cc1c[nH]c2ccccc12)NC(=O)[C@@H](C)NC(=O)[C@@H](C)NC(=O)[C@H](N)Cc1c[nH]c2ccccc12)C(=O)NCC(=O)N[C@H](CC(C)C)C(=O)N[C@H](CCCNC(=N)N)C(=O)N[C@H](CCCCN)C(=O)N[C@H](CCCCN)C(=O)N[C@H](CCCNC(=N)N)C(N)=O [WCopW20] (H-[dW][dA][dA][dW][dI]G[dL][dR][dK][dK][dR]-NH2) , then report it.
Result: > 20 µM

Ref: paper PMC9643456
